Data origin: patent CN114907478A

# assayTarget: T1, hLAG-3-mFc融合蛋白 (human, UniProt P18627 23-450)
# T1 construct: range 1-450; no cleavage site is stated; also called hLAG-3-mFc重组蛋白; 人LAG-3-mFc重组蛋白; not shown: mouse Fc
# T1 sequence (looked up): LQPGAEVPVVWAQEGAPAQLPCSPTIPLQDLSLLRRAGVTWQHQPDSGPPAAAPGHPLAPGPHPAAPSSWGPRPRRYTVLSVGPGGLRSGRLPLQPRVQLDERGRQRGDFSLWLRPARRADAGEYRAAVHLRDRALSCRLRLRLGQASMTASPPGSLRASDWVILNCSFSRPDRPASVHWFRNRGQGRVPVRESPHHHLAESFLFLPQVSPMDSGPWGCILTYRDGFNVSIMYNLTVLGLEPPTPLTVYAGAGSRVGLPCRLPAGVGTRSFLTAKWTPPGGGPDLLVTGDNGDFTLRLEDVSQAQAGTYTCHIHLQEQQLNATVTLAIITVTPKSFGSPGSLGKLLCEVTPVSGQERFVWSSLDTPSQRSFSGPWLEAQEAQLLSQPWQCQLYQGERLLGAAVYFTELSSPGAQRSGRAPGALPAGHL
# measurementProtocol: FACS competition: blocking of hLAG-3-mFc (2 ug/ml) binding to HLA on 293/rhHLA cells
measure: IC50 (µg/mL)
Lab book: enter the figure in µg/mL, no units written.

# lookup: IC50 of ch10B4嵌合抗体 (antibody, human IgG4, V domains shown) VH: EVQLQQSGAELARPGASVKLSCKASGYSFTNYGISWMKQRTGQGLEWIGEIYPRGGNTYYNGKFKGKATLTADQSSSTAYMELRSLTSEDSAVYFCARRAFYYFGSNYYAMDYWGQGTSVTVSS VL: DVVMTQTPLFLPVSLGDQASISCRSSQSIVHSNGDTYLEWYLQKPGQSPKLLIYKVSNRFSGVPDRFSGSGSGTDFTLKISRVEAEDLGVYYCFQGSHVPWTFGGGTKLAIK
2
